B1: EHMT1 (parent)
chain: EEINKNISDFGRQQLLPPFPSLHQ

# Variants of: B1
# assay-summary: protein stability index of a GFP-peptide fusion (GPS, HEK-293T) (PSI 1-6); higher = more stable;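 further: lentivirally expressed fusions sorted by FACS into six bins by GFP to DsRed ratio, PSI derived from sequencing read proportions per bin multiplied by bin number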
# particulars: c terminus: a fixed tail appended
property-name: protein stability index
One number for each entry.

Example results:
EEINKNISDWGRQQLLPPFPSLHQ [F10W]	2.59
EEINKNISDFGRQQLLPPAPSLHQ [F19A]	4.02
EEINKNISDFGRQQLLYPFPSLHQ [P17Y]	2.54

Below is a list of variants. For each, state its recorded protein stability index.
1. EEINKNISDIGRQQLLPPFPSLHQ [F10I]
2. EEINKNISDFGRQQHLPPFPSLHQ [L15H]
3. EEINKNSSDFGRQQLLPPFPSLHQ [I7S]
4. GEINKNISDFGRQQLLPPFPSLHQ [E1G]
5. EEINKNMSDFGRQQLLPPFPSLHQ [I7M]
6. EEINKNISDFGRQQLLPPFPSLHP [Q24P]

A:
1: 2.52; 2: 2.96; 3: 2.83; 4: 2.7; 5: 3.03; 6: 3.43

Below is a list of variants. For each, state its recorded protein stability index.
1. EEINKNISDFGIQQLLPPFPSLHQ [R12I]
2. EEINKNIQDFGRQQLLPPFPSLHQ [S8Q]
3. EEINKNHSDFGRQQLLPPFPSLHQ [I7H]
4. EEINKNISDFGRQQLLPPFPSLDQ [H23D]
5. EEINKNISDFGRQQLLPPFTSLHQ [P20T]
6. EEINKNISDFGRQQLDPPFPSLHQ [L16D]
7. EEINKNISDQGRQQLLPPFPSLHQ [F10Q]

A:
2.93
2.64
2.73
3.85
3.01
4
3.3

Below is a list of variants. For each, state its recorded protein stability index.
1. EEINKNISDFGRQQLLLPFPSLHQ [P17L]
2. EEINKNISDFGRQQVLPPFPSLHQ [L15V]
3. EEINKNISDFGRQGLLPPFPSLHQ [Q14G]
4. EEIDKNISDFGRQQLLPPFPSLHQ [N4D]
5. EEINKNISDFGRQQLLPPFPSKHQ [L22K]
6. EEINKNISDFGRQQLLPPFCSLHQ [P20C]

A:
2.21
3.62
2.92
3.26
4.33
2.87
